We begin with a simple list: items and their reported koff.
# Tgt: T1, human CD73 (huCD73) protein, antigen of the Biacore assay (human, UniProt P21589 27-547, limits assumed)
# T1 construct: also called human CD73 antigen
# T1 sequence (looked up): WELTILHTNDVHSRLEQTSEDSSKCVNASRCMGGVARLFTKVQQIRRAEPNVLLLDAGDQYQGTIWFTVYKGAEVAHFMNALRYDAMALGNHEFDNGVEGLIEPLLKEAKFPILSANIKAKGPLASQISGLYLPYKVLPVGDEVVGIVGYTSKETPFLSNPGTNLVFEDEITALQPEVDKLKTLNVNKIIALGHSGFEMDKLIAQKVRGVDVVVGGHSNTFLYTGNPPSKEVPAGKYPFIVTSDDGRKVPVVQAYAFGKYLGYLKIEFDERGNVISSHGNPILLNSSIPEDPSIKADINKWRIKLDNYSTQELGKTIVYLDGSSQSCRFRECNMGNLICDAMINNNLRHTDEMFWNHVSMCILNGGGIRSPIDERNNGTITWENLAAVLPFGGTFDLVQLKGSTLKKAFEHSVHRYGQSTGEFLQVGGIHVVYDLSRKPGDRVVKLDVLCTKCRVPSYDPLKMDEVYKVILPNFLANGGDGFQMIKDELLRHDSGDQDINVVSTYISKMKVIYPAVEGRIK
# Measurement Description: SPR Biacore T200; antibody captured on Protein A chip, CD73 in flow; 1:1 Langmuir
Number only, in s⁻¹; omit the unit.

Example entries begin here.
{"columns": ["Binder", "Property Label", "Unit Annotation", "Value"],
 "data": [
  ["Hab127.43 (antibody, V domains shown, VL4 + VH3; recombined with human heavy and light constant regions) VH: EVQLVQSGAEVKKPGASVKVSCKASGYTFTAYFMNWVMQAPGQGLEWIGRIYHNNGDTFYSQKFKGRATLTVDKSTSTVYMELSSLRSEDTAVYYCATSYVGDWGQGTTVTVSS VL: DIQMTQSPSSLSASVGDRVTITCRASQDIGDSLNWLQQKPGGALKRLIYATSSLDSGVPSRFSGSGSGSDYTLTISSLQPEDFATYYCLQYASFPWTFGGGTKVEIK", "koff", "s⁻¹", "3.58e-05"],
  ["Hab108.35 (antibody, V domains shown, VL3 + VH5; full-length antibody) VH: EVTLKESGPVLVKPTETLTLTCTVSGFSLKSYGIQWVRQPPGKLLEWLGVIWSGGSADYNAAFISRLTISKDTSKSQVVLTMTNMDPVDTATYYCAGQYGSVWGQGTLVTVSS VL: DIQMTQSPSSLSASVGDRVTITCRASQDIGDRLNWLQQKPGGAIKRLIYATSSLDSGVPSRFSGSGSGTEYTLTISSLQPEDFATYYCLQYAGSWTFGGGTKVEIK", "koff", "s⁻¹", "8.09e-05"],
  ["Hab127.23 (antibody, V domains shown, VL2 + VH3; recombined with human heavy and light constant regions) VH: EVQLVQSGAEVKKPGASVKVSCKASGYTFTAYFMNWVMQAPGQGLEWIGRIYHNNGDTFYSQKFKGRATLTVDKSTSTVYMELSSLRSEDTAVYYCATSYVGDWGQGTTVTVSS VL: DIQMTQSPSSLSASVGDRVTITCRASQDIGDSLNWLQQKPGKAPKRLIYATSSLDSGVPSRFSGSGSGTEYTLTISSLQPEDFATYYCLQYASFPWTFGGGTKVEIK", "koff", "s⁻¹", "4.59e-05"]
]}

Summary for this binder, Hab110.34 (antibody, V domains shown, VL3 + VH4; recombined with human heavy and light constant regions) VH: EVQLVQSGAEVKKPGASVKVSCKASGYTFTSYTMHWVRQAPGQRLEWIGYINPNSFYIEYNQKFKDKATLTADTSASTAYMELSSLRSEDTAVYYCARGDYDLFYDMDNWGQGTTVTVSS VL: DIQMTQSPSSLSASVGDRVTITCRASQDIGNSLNWLQQKPGGAIKRLIYATFRLDSGVPSRFSGSRSGTEYTLTISSLQPEDFADYYCQQYASFPWTFGGGTKVEIK : koff is 8.16e-05

Recorded result, Hab110.23 (antibody, V domains shown, VL2 + VH3; recombined with human heavy and light constant regions) VH: EVQLVQSGAEVKKPGASVKVSCKASGYTFTSYTMHWVRQAPGQRLEWIGYINPNSFYIEYNQKFKDRATLTADTSASTAYMELSSLRSEDTAVYYCARGDYDLFYDMDNWGQGTTVTVSS VL: DIQMTQSPSSLSASVGDRVTITCRASQDIGNSLNWLQQKPGKAIKRLIYATFRLDSGVPSRFSGSRSGTEYTLTISSLQPEDFATYYCQQYASFPWTFGGGTKVEIK , koff: 5.43e-05

Notebook: Hab108.64 (antibody, human IgG1, kappa, V domains shown, also called humanized antibody of mab108) VH: EVTLKQSGPGLVKPTETLTLTCTVSGFSLSSYGIQWVRQPPGKGLEWLGVIWSGGSADYNAAFISRLTISKDTSKSQVVLTMTNMDPVDTATYYCAGQYGSVWGQGTLVTVSS VL: DIQMTQSPSSLSASVGDRVTITCRASQDIGDRLNWLQQKPGGAIKRLIYATSSLDSGVPKRFSGSGSGTEYTLTISSLQPEDFATYYCLQYAGSWTFGGGTKVEIKR , koff read as 9.24e-05

response.value for Hab110.32 (antibody, V domains shown, VL3 + VH2; recombined with human heavy and light constant regions) VH: EVQLVQSGAEVKKPGASVKVSCKASGYTFTSYTMHWVRQAPGQRLEWMGYINPNSFYIEYNQKFKDRVTITADTSASTAYMELSSLRSEDTAVYYCARGDYDLFYDMDNWGQGTTVTVSS VL: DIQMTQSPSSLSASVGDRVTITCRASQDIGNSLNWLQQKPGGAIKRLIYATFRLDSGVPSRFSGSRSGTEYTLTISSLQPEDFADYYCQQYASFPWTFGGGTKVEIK (field: koff) = 6.94e-05
